# TESTED_TARGET: T1, 4H3049-AA
# T1 chain: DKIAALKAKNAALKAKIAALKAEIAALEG
# METHOD_DESCRIPTION: two-hybrid library CCmax;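 note: natural log of median RNA to DNA barcode read ratio; higher means stronger binding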
# STUDY_CONDITIONS: mean of both orientations
PROPERTY_MEASURED: interaction score

Worked cases, interaction score given:
DENAALEAKIAALKAEIAALEAKIAALKG [4H1350-AA]	0.379
DENAALEAEIAALEAKIAALKAKIAALKG [4H1070-AA]	0.86
DENAALEAEIAALEAKIAALEAKNAALKG [4H1064-AA]	0.863
DKIAALKAEIAALEAKNAALKAKIAALEG [4H2621-AA]	0.214
DENAALEAEIAALEAEIAALKAKNAALKG [4H1040-AA]	1.34

[a] DKIAALKAENAALEAKIAALKAKNAALKG [4H2736-AA]
[b] DKIAALKAENAALKAENAALEAKIAALKG [4H2774-AA]
Min interaction score? a | b Mark your selection by writing its label.
a

[I] DKIAALKAKNAALEAENAALEAEIAALEG [4H2961-AA]
[II] DENAALKAEIAALEAKNAALKAEIAALEG [4H1593-AA]
Compare the recorded interaction score of I and II ; state which is larger. Mark your selection by writing its label.
I
(I: 1.02, II: -0.661)
